Data provenance is patent US10618903B2.

tgt: UniProt:Q9NWZ3
Sequence (Q9NWZ3 whole entry): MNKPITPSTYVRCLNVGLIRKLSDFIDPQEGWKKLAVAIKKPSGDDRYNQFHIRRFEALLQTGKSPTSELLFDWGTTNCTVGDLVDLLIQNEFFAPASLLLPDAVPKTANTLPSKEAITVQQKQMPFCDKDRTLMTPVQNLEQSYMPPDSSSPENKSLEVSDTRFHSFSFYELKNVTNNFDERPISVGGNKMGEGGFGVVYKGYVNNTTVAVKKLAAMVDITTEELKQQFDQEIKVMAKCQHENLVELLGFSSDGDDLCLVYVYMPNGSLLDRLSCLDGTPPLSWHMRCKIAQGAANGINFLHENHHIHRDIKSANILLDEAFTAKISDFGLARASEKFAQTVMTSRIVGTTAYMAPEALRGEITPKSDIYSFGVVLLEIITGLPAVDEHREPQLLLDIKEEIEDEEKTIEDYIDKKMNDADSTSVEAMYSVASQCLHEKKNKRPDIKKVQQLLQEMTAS
pIC50: −log10 of the molar value.
Use 8 as the dividing line for pIC50, with the line itself on the Criterion met side and lower values as Criterion not met.

Here's what some known entries look like.
molecule: CC(C)Nc1cc(-c2cnn3cc(Cl)cnc23)ncc1C(=O)N[C@H]1CC[C@H](NC(=O)C(C)(C)O)CC1
label-value: Criterion not met
//
molecule: CC(C)Nc1cc(-c2cnn3cccnc23)ncc1C(=O)NC[C@@H](F)C(C)(C)O
label-value: Criterion not met
//
molecule: CC(C)(O)[C@H](F)CNC(=O)c1cnc(-c2cnn3cc(Cl)cnc23)cc1NC12CCC(O)(CC1)C2
label-value: Criterion met
//
molecule: CC(C)Nc1cc(-c2cnc3cc(F)cnn23)ncc1C(=O)NC[C@H](F)C(C)(C)O
label-value: Criterion met
//
molecule: C[C@@H](CO)Nc1cc(-c2cnc3cc(Cl)cnn23)ncc1C(=O)NC[C@@H](F)C(C)(C)O
label-value: Criterion met
//
molecule: Cn1cc(Nc2cc(-c3cnn4cc(Cl)cnc34)ncc2C(=O)NCCC(C)(C)O)cn1
label-value: Criterion met
//
molecule: CC(C)(O)[C@H](F)CNC(=O)c1cnc(-c2cnn3cc(C#N)cnc23)cc1Nc1cnn(CC(F)(F)F)c1 [Example 241]
label-value: Criterion met

Task item: Dear colleague, could you confirm whether C[C@H](Nc1cc(-c2cnn3cc(C#N)cnc23)ncc1C(=O)NC[C@@H](F)C(C)(C)O)C(C)(C)O has pIC50 at or above 8?
Reply: Criterion not met
